Provide the recorded ED50 for the entries that follow.
molecular target: Beta-2 adrenergic receptor (Rattus norvegicus); assay: Beta-2 adrenergic receptor antagonist activity as the dose required to inhibit 50% of vasodepressor response in anesthetized rats

The compound CC(C)(C)NCC(O)COc1ccc(OCCOCCc2ccc(F)cc2)cc1 (stereo not given) showed ED50 equal to > 2 mg/kg

For this compound ( CC(C)NCC(O)COc1ccc(OCCOCCOc2ccc(OCC(O)CNC(C)C)cc2)cc1 (stereo not given) ), measured ED50 is > 10 mg/kg

ED50 in this record for CC(C)(C)NCC(O)COc1ccc(OCCOCCc2ccccc2)cc1 (stereo not given) : 0.979 mg/kg

Just so you know, measured ED50 for CC(C)NCC(O)COc1ccc(OCCOCCOc2ccccc2)cc1 (stereo not given) came out at > 5 mg/kg

// ED50 value for CC(C)NCC(O)COc1ccc(CCOCCc2ccccc2)cc1 (stereo not given) : > 2 mg/kg

// sample CC(C)NCC(O)COc1ccc(OCCOCCc2ccccc2)cc1 (stereo not given) , its ED50 was > 50 mg/kg

Quick note, ED50 for CC(C)NCC(O)COc1ccc(OCCOCCc2ccc(F)cc2)cc1 (stereo not given) landed at > 2 mg/kg

According to the records, this compound CC(C)NC[C@H](O)COc1ccc(OCCOCCc2ccc(F)cc2)cc1 (stereo in doubt; 14a) displays ED50 of > 2 mg/kg

ED50 measured on CC(C)NCC(O)COc1ccc(OCCOCCc2ccc(Cl)cc2)cc1 (stereo not given) = > 2 mg/kg

Kindly note the recorded ED50 for CC(C)NCC(O)COc1ccc(OCCOCCc2ccc(C#N)cc2)cc1 (stereo not given) , which is > 2 mg/kg

GET /value?item= CC(C)NCC(O)COc1ccc(CCOCCOc2ccccc2)cc1 (stereo not given) &field=ED50 returns 0.924 mg/kg

The compound listed as CSc1ccc(CCOCCOc2ccc(OCC(O)CNC(C)C)cc2)cc1 (stereo not given) has a reported ED50 of > 2 mg/kg

Record summary for Cc1ccc(CCOCCOc2ccc(OCC(O)CNC(C)C)cc2)cc1 (stereo not given) : reported ED50 = > 2 mg/kg

Sample CC(=O)Nc1ccc(CCOCCOc2ccc(OCC(O)CNC(C)C)cc2)cc1 (stereo not given) ; ED50 observed: > 2 mg/kg

Sample Cc1cc(OCCOCCc2ccccc2)ccc1OCC(O)CNC(C)C (stereo not given) ; ED50 observed: > 2 mg/kg

Just so you know, measured ED50 for CC(C)NCC(O)COc1ccc(OCCOCCc2ccc(F)cc2)cc1F (stereo not given) came out at > 2 mg/kg

The compound identified as CC(C)NC[C@H](O)COc1ccc(OCCOCCc2ccc(F)cc2)cc1 (stereo in doubt; 14b) registered its ED50 at > 2 mg/kg

Memo: CC(C)NCC(O)COc1ccc(OCCOCCc2ccc(F)cc2)c(F)c1 (stereo not given) , reported ED50: > 2 mg/kg

Entry under test: COc1ccc(CCOCCOc2ccc(OCC(O)CNC(C)C)cc2)cc1 (stereo not given) . Its ED50 was > 2 mg/kg

Noted for CC(C)NCC(O)COc1ccc(OCCOCCc2ccccc2)cc1Cl (stereo not given) : its ED50 reads 0.834 mg/kg

---

biological target: Beta-1 adrenergic receptor (Rattus norvegicus); test: Beta-1 adrenoceptor blocking activity as the dose required to inhibit 50% of tachycardia in anesthetized rats; format: functional
Provide the reported ED50 of each item.

The measured ED50 associated with CC(C)NC[C@H](O)COc1ccc(OCCOCCc2ccc(F)cc2)cc1 (stereo in doubt; 14a) reads 0.004 mg/kg

The reported value for Cc1ccc(CCOCCOc2ccc(OCC(O)CNC(C)C)cc2)cc1 (centres undefined) in terms of ED50 is 0.066 mg/kg

Entry CC(C)NCC(O)COc1ccc(OCCOCCOc2ccc(OCC(O)CNC(C)C)cc2)cc1 (centres undefined) — recorded ED50 = 0.052 mg/kg

The molecule listed as COc1ccc(CCOCCOc2ccc(OCC(O)CNC(C)C)cc2)cc1 (centres undefined) has a reported ED50 of 0.344 mg/kg

Looking up Cc1cc(OCCOCCc2ccccc2)ccc1OCC(O)CNC(C)C (centres undefined) , I see its ED50 listed as 0.572 mg/kg

Memo: CC(C)NCC(O)COc1ccc(OCCOCCc2ccccc2)cc1 (centres undefined) , reported ED50: 0.015 mg/kg

Please fill in: ED50 reported for CC(C)NCC(O)COc1ccc(OCCOCCc2ccc(Cl)cc2)cc1 (centres undefined) = 0.627 mg/kg

Measured ED50 of COCCc1ccc(OCC(O)CNC(C)C)cc1 (centres undefined) : 0.25 mg/kg

Just so you know, measured ED50 for CC(C)(C)NCC(O)COc1ccc(OCCOCCc2ccc(F)cc2)cc1 (centres undefined) came out at 0.002 mg/kg
